- test-description: Luminescence Cell-Based Dose Response HTS to Identify Inhibitors of 5'UTR Stem-Loop Driven Prion Protein mRNA Translation in H4 Neuroglioblastoma Cells. [Related pubchem assays: 1827 (Project Summary), 1813 (Primary HTS)]
- Format: functional
Calls of active or inactive are those of the source.
EC50 reference

Past entries and their recorded results:
molecule: Cc1cccc(OCC(O)CN2CCN(S(=O)(=O)c3ccc(C)cc3C)CC2)c1 (stereo not given)
EC50: > 120 µM (not active)

molecule: CC1CC2(C)Oc3ccccc3CC2C(C)C1CNCCCN(C)C (stereo not given)
EC50: > 120 µM (not active)

molecule: CCOc1ccccc1C(=O)Nc1cnc(O)nc1O
EC50: > 120 µM (not active)

molecule: CCOc1ccc(NC(=O)C(=O)NCCN2CCN(C(=O)c3ccc(C)cc3)CC2)cc1
EC50: 64.8 µM (active)

Exercise: Given COCCN(Cc1cc2cc3c(cc2n2nnnc12)OCO3)C(=O)c1ccccc1F , respond with its EC50.
Solution: > 120 µM (not active)

----------
- assayed-target: UniProt P05186
- Sequence (P05186 whole entry): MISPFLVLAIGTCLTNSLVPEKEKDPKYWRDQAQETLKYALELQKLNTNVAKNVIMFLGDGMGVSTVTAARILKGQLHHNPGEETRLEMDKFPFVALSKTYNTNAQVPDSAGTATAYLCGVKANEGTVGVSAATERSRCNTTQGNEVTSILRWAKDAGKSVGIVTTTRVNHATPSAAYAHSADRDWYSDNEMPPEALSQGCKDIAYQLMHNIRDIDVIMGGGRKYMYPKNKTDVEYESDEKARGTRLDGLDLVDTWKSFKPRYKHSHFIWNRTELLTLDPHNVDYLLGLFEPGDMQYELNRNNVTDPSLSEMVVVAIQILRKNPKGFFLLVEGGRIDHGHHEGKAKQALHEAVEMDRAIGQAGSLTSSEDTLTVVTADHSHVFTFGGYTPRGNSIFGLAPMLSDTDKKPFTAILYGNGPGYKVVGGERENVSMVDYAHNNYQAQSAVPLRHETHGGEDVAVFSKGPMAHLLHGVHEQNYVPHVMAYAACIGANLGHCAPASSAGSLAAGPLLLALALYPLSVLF
- test-description: potency against alkaline phosphatase TNAP – biochemical, luminescent, dose response, SAR follow-up (AID 1056)
Active and inactive are the calls of the source.
Outcome (select one): yes (1) = active, no (0) = inactive

As a guide, the following entries are already answered.
molecular-string: Clc1ccccc1-c1n[nH]c(-c2ccccc2)n1
category-label: yes (1)

molecular-string: COc1ccc(-n2sc3ccc(F)cc3c2=O)cc1
category-label: no (0)

Exercise: How was Nc1ccc2c(c1)OC1(CCCC1)O2 classified in this test?
Solution: no (0)

Exercise: How was COc1ccc(Br)cc1S(=O)(=O)Nc1ccon1 classified in this test?
Solution: no (0)

Exercise: How was COC(=O)c1ccc(OC)c(S(=O)(=O)Nc2cnc3ccccc3c2)c1 classified in this test?
Solution: no (0)

----------
- assayed-target: FAD-linked sulfhydryl oxidase ALR (Homo sapiens)
- Sequence (P55789 whole entry): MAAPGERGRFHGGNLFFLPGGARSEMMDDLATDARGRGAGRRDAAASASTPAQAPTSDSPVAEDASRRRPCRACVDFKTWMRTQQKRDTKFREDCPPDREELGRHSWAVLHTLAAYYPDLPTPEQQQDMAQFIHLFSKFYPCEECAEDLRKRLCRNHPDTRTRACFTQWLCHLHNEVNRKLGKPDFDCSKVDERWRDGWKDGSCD
- test-description: ALR-catalysed DTT oxidation blockers – biochemical, H2O2 detection, luminescence, cherry-pick, dose response (AID 493248)
Calls of active or inactive are those of the source.
AC50 reference

compound: Oc1ccccc1CNc1cnc2ccccc2c1
data-value: 37.9 µM (active)
--
compound: CC(=N\Nc1ccccc1)/C(=N/O)C(=O)Nc1ccccc1
data-value: 2.49 µM (active)
--
compound: O=C(Nc1ccc(O)cc1)c1cc(S(=O)(=O)N2CCCC2)ccc1Cl
data-value: 2.49 µM (active)
--
compound: CN(C)c1ccc(/C=N/Nc2ccc(-n3ccnc3)nn2)cc1
data-value: 3.85 µM (active)

Exercise: State recorded AC50 with FAD-linked sulfhydryl oxidase ALR (Homo sapiens), entry COc1ccc(NC2c3ccccc3C(=O)N2c2cccnc2)cc1Cl (configuration not stated) , no comment.
Solution: 4.34 µM (active)

Exercise: State recorded AC50 with FAD-linked sulfhydryl oxidase ALR (Homo sapiens), entry CC(c1nnc(S)n1-c1ccc(F)cc1)N1CCCCC1 (configuration not stated) , no comment.
Solution: 5.03 µM (active)

Exercise: State recorded AC50 with FAD-linked sulfhydryl oxidase ALR (Homo sapiens), entry Nc1ccc(Cl)cc1/C(=N/O)c1ccccc1 , no comment.
Solution: 22.8 µM (active)

----------
- assayed-target: Large T antigen (Simian virus 40);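 note: Confirmatory-stage PubChem screen for compounds that inhibit SV40 T antigen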
- Sequence (P03070 whole entry): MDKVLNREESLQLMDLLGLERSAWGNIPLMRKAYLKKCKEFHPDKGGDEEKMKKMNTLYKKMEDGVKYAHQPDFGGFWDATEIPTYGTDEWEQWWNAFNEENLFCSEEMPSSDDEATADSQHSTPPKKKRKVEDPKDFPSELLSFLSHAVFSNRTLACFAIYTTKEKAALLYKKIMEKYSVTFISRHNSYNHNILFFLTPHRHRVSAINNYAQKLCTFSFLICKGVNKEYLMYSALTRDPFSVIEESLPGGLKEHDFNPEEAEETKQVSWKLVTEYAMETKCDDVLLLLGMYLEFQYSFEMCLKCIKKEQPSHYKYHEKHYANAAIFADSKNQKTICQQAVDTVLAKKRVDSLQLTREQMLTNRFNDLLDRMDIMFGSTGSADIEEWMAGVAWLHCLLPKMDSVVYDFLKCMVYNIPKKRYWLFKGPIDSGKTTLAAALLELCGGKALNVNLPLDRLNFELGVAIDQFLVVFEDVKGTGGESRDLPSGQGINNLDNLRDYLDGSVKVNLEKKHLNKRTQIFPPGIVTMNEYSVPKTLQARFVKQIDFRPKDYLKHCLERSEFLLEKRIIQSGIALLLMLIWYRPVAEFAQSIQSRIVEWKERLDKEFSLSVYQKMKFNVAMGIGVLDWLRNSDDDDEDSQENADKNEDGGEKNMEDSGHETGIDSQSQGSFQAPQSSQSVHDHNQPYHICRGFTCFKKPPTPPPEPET
- Type: functional, Betapolyomavirus macacae
Activity calls are given as the source filed them.
measured-property: IC50

Exercise: State recorded IC50 with Large T antigen (Simian virus 40), entry O=C1NC(=S)NC(=O)C1=Cc1ccc2c(c1)CCN2CCCCl , no comment.
Solution: 28.8 µM (active)

Exercise: State recorded IC50 with Large T antigen (Simian virus 40), entry CCOc1ccc(/C=N/NC(=O)CSc2ccccn2)cc1O , no comment.
Solution: 17.7 µM (active)

Exercise: State recorded IC50 with Large T antigen (Simian virus 40), entry CCOC(=O)C1=C(O)/C(=C\c2ccc(O)c(OCC)c2)N=C1C , no comment.
Solution: 9.94 µM (active)

Exercise: State recorded IC50 with Large T antigen (Simian virus 40), entry O=c1[nH]sc2cc(F)ccc12 , no comment.
Solution: 33.3 µM (active)

Exercise: State recorded IC50 with Large T antigen (Simian virus 40), entry CN1C(=O)NC(c2ccc(O)cc2)C2=C1CN(c1ccc(O)cc1)C2=O (stereo unspecified) , no comment.
Solution: 8.64 µM (active)

Exercise: State recorded IC50 with Large T antigen (Simian virus 40), entry COc1cc(C#CC#CCN2CCCCC2)ccc1O , no comment.
Solution: 10.3 µM (active)

Every entry's value here was drawn from ChEMBL document CHEMBL1201862.
